Molecular target: Escherichia Coli TS ("ETS") (Escherichia coli, UniProt P0A884)
Sequence (P0A884 whole entry): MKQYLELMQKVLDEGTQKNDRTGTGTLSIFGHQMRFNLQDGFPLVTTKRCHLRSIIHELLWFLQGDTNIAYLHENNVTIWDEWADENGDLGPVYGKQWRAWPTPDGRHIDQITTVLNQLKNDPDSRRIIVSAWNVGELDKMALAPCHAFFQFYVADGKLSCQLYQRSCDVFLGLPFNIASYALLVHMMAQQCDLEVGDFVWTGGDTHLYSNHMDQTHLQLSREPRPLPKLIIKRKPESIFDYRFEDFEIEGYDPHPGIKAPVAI
Test: Thymidylate synthase inhibition constant Ki, Escherichia Coli TS
Type: biochemical
Details: read-out: Ki ETS; 25° C., against 5,10-methylene-tetrahydrofolate, 25 microM dUMP
Protocol: Thymidylate synthase inhibition constants Ki were determined by the following method. […] All reaction mixtures contained 50 mM Tris at pH 7.8 (the final pH of the reaction was; 7.6), 10 mM DTT (dithiothreitol), 1 mM EDTA (ethylenediaminetetraacetic acid), 25 mM MgCl2, 15 mM H2 CO (formaldehyde) and 25 microM dUMP. […] Charcoal was used to remove unreacted dUMP from the tritium release reaction mixtures, and the resultant water was counted to determine the extent of reaction.
pKi: −log10 of the molar value.
Measurement type: pKi

Query: Which pKi is listed for CN(Cc1ccc(CO)c2ccccc12)c1ccc2c3c(cccc13)C(=O)N2 [Compound 31] ?
Response: < 5.70

###

System: CCRF-CEM, a human lymphoblastic leukemia line of T-cell origin (ATCC CCL 119)
Assay: cells
Type: cell-based
Details: 120 h, read-out: IC50 (CRFCEM)
# Lookup of reported pIC50 keyed by entry
Note on pIC50: it is the negative log10 of concentration, concentration in mol/L.

{"columns": ["Smiles record", "Subject of test", "pIC50"],
 "data": [
  ["CC(C)N(Cc1ccc(S(=O)(=O)N2CCNCC2)cc1)c1ccc2c3c(cccc13)C(=O)N2", "CCRF-CEM, a human lymphoblastic leukemia line of T-cell origin (ATCC CCL 119)", 5.17]
]}

Query: Which pIC50 is listed for CCN(Cc1ccc(S(=O)(=O)N2CCNCC2)cc1)c1ccc2c3c(cccc13)C(=S)N2 ?
Response: 5.46

###

# Lookup of reported pKi keyed by entry
Target: Candida TS ("CTS") (Candida albicans, UniProt P12461)
Sequence (P12461 whole entry): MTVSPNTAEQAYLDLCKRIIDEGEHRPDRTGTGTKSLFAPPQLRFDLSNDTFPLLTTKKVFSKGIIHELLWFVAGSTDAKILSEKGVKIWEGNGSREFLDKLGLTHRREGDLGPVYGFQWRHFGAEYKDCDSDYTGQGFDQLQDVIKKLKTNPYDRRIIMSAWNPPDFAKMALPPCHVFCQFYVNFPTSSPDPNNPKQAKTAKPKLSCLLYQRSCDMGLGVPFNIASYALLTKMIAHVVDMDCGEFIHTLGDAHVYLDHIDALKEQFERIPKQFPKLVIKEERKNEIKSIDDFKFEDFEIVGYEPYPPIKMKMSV
Assay: Thymidylate synthase inhibition constant Ki, Candida TS
Type: biochemical
Note on pKi: it is the negative log10 of concentration, concentration in mol/L.

{"columns": ["Smiles record", "Subject of test", "Measurement type", "Value measured"],
 "data": [
  ["O=C1Nc2ccc(N(CCO)Cc3ccc(S(=O)(=O)N4CCNCC4)cc3)c3cccc1c23", "Candida TS (\"CTS\") (Candida albicans, UniProt P12461)", "pKi", 4.96]
]}

Query: Which pKi is listed for CCN(Cc1ccc(S(=O)(=O)N2CCNCC2)cc1)c1ccc2c3c(cccc13)C(=S)N2 ?
Response: 4.64

Query: Which pKi is listed for CCN(Cc1ccc(S(=O)(=O)c2ccccc2)cc1)c1ccc2c3c(cccc13)C(N)=N2 ?
Response: 6.42

Query: Which pKi is listed for CC(C)N(Cc1ccc(S(=O)(=O)N2CCNCC2)cc1)c1ccc2c3c(cccc13)C(=O)N2 ?
Response: 4.37

###

Molecular target: UniProtKB P0A884
Assay: Thymidylate synthase inhibition constant Ki, Escherichia Coli TS
Assay type: biochemical
Measurement type: pKi
Note on pKi: it is the negative log10 of concentration, concentration in mol/L.

{"columns": ["Smiles record", "Subject of test", "pKi"],
 "data": [
  ["CCN(Cc1ccc(S(=O)(=O)N2CCNCC2)cc1)c1ccc2c3c(cccc13)C(=S)N2", "UniProtKB P0A884", 4.30],
  ["CCN(Cc1ccc(S(=O)(=O)c2ccccc2)cc1)c1ccc2c3c(cccc13)C(N)=N2", "UniProtKB P0A884", 5.00],
  ["O=C1Nc2ccc(N(CCO)Cc3ccc(S(=O)(=O)N4CCNCC4)cc3)c3cccc1c23", "UniProtKB P0A884", 4.85]
]}

Shifting focus to the compound that follows.
Query: Which pKi is listed for CC(C)N(Cc1ccc(S(=O)(=O)N2CCNCC2)cc1)c1ccc2c3c(cccc13)C(=O)N2 ?
Response: 4.64

###

Recorded pKi values (human TS ("HTS") (Homo sapiens, UniProt P04818)) are given below.
Note on pKi: it is the negative log10 of concentration, concentration in mol/L.

{"columns": ["Molecule", "Subject of test", "Value measured"],
 "data": [
  ["CCN(Cc1ccc(S(=O)(=O)c2ccccc2)cc1)c1ccc2c3c(cccc13)C(N)=N2 [Compound 34]", "human TS (\"HTS\") (Homo sapiens, UniProt P04818)", 7.12],
  ["CCN(Cc1ccc(S(=O)(=O)N2CCNCC2)cc1)c1ccc2c3c(cccc13)C(=S)N2 [Compound 6]", "human TS (\"HTS\") (Homo sapiens, UniProt P04818)", 5.47],
  ["CN(Cc1ccc2cc(CO)ccc2c1)c1ccc2c3c(cccc13)C(=O)N2 [Compound 47]", "human TS (\"HTS\") (Homo sapiens, UniProt P04818)", 4.70],
  ["CCN(Cc1ccc(S(=O)(=O)c2ccccc2)cc1)c1ccc2c3c(cccc13)C(=O)N2 [Compound 8]", "human TS (\"HTS\") (Homo sapiens, UniProt P04818)", 5.92],
  ["O=C1Nc2ccc(N(CCCO)Cc3ccc(S(=O)(=O)N4CCNCC4)cc3)c3cccc1c23 [Compound 40]", "human TS (\"HTS\") (Homo sapiens, UniProt P04818)", 4.96]
]}

Query: Report pKi for CSCN(Cc1ccc(S(=O)(=O)c2ccccc2)cc1)c1ccc2c3c(cccc13)C(=O)N2 [Compound 24] tested on human TS ("HTS") (Homo sapiens, UniProt P04818).
Sequence (P04818 whole entry): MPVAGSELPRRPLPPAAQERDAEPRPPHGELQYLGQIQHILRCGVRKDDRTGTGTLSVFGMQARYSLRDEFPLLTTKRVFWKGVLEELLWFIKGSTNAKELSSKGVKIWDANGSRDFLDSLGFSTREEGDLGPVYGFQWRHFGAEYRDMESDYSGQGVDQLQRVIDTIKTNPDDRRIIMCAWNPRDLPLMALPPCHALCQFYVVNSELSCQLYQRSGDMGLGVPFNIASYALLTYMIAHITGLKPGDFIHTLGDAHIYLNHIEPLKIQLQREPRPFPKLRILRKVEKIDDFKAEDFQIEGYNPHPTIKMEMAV
Response: 5.41

Query: Report pKi for CC(C)N(Cc1ccc(S(=O)(=O)N2CCNCC2)cc1)c1ccc2c3c(cccc13)C(=O)N2 [Compound 22] tested on human TS ("HTS") (Homo sapiens, UniProt P04818).
Response: 5.31

Query: Report pKi for CCN(Cc1ccc(S(=O)(=O)c2ccccc2)cc1)c1ccc2c3c(cccc13)CN2 [Compound 41] tested on human TS ("HTS") (Homo sapiens, UniProt P04818).
Response: 4.92

###

# Lookup of reported pKi keyed by entry
Molecular target: UniProt:P04818
Note on pKi: it is the negative log10 of concentration, concentration in mol/L.

{"columns": ["Smiles record", "Subject of test", "Value measured"],
 "data": [
  ["CCCN(Cc1ccc(S(=O)(=O)N2CCNCC2)cc1)c1ccc2c3c(cccc13)C(=O)N2", "UniProt:P04818", 4.92]
]}

Query: Report pKi for O=C1Nc2ccc(N(CCO)Cc3ccc(S(=O)(=O)N4CCNCC4)cc3)c3cccc1c23 tested on UniProt:P04818.
Response: 6.06

Query: Report pKi for CN(Cc1ccc(CO)c2ccccc12)c1ccc2c3c(cccc13)C(=O)N2 tested on UniProt:P04818.
Response: 5.00

###

Test system: CCRF-CEM, a human lymphoblastic leukemia line of T-cell origin (ATCC CCL 119)
Experiment: cells
Format: cell-based
Settings: 120 h, read-out: IC50 (CRFCEM)
Measurement type: pIC50
Note on pIC50: it is the negative log10 of concentration, concentration in mol/L.

{"columns": ["Smiles record", "pIC50"],
 "data": [
  ["O=C1Nc2ccc(N(CCCO)Cc3ccc(S(=O)(=O)N4CCNCC4)cc3)c3cccc1c23", 4.82]
]}

Query: Which pIC50 is listed for CN(Cc1ccc(CO)c2ccccc12)c1ccc2c3c(cccc13)C(=O)N2 ?
Response: 5.52

Query: Which pIC50 is listed for O=C1Nc2ccc(N(CCO)Cc3ccc(S(=O)(=O)N4CCNCC4)cc3)c3cccc1c23 ?
Response: 4.51

Query: Which pIC50 is listed for CSCN(Cc1ccc(S(=O)(=O)c2ccccc2)cc1)c1ccc2c3c(cccc13)C(=O)N2 ?
Response: 5.55

Query: Which pIC50 is listed for CCN(Cc1ccc(S(=O)(=O)c2ccccc2)cc1)c1ccc2c3c(cccc13)C(N)=N2 ?
Response: 5.90

Query: Which pIC50 is listed for CCCN(Cc1ccc(S(=O)(=O)N2CCNCC2)cc1)c1ccc2c3c(cccc13)C(=O)N2 ?
Response: 5.51

###

# Lookup of reported pKi keyed by entry
Target: Candida TS ("CTS") (Candida albicans, UniProt P12461)
Assay: Thymidylate synthase inhibition constant Ki, Candida TS
Assay type: biochemical
pKi: −log10 of the molar value.

{"columns": ["Molecule", "Value measured"],
 "data": [
  ["O=C1Nc2ccc(N(CCCO)Cc3ccc(S(=O)(=O)N4CCNCC4)cc3)c3cccc1c23 [Compound 40]", "< 5.00"]
]}

Shifting focus to the molecule that follows.
Query: Which pKi is listed for CCN(Cc1ccc(S(=O)(=O)c2ccccc2)cc1)c1ccc2c3c(cccc13)CN2 [Compound 41] ?
Response: < 5.00

###

Target: UniProt P0A884
Assay: Thymidylate synthase inhibition constant Ki, Escherichia Coli TS
Format: biochemical
Measurement type: Ki

{"columns": ["Smiles record", "Ki"],
 "data": [
  ["CCCN(Cc1ccc(S(=O)(=O)N2CCNCC2)cc1)c1ccc2c3c(cccc13)C(=O)N2", "> 20 µM"],
  ["CCN(Cc1ccc(S(=O)(=O)c2ccccc2)cc1)c1ccc2c3c(cccc13)C(=O)N2", "> 1 µM"],
  ["O=C1Nc2ccc(N(CCCO)Cc3ccc(S(=O)(=O)N4CCNCC4)cc3)c3cccc1c23", "> 10 µM"],
  ["CSCN(Cc1ccc(S(=O)(=O)c2ccccc2)cc1)c1ccc2c3c(cccc13)C(=O)N2", "> 1 µM"],
  ["CCN(Cc1ccc(S(=O)(=O)c2ccccc2)cc1)c1ccc2c3c(cccc13)CN2", "> 5 µM"]
]}

Shifting focus to the compound that follows.
Query: Which Ki is listed for CN(Cc1ccc2cc(CO)ccc2c1)c1ccc2c3c(cccc13)C(=O)N2 ?
Response: > 10 µM
